Form field: log10 IC50 (one value per entry).
- Measured on: KRas^G12D (Homo sapiens, UniProt P01116, G12D)
- Construct: corresponding to amino acids 1-169, produced at Accelegan Inc; biotin (biotinylated); purchased Accelegan Inc
- Sequence (P01116 1-169 isoform P01116-2 G12D): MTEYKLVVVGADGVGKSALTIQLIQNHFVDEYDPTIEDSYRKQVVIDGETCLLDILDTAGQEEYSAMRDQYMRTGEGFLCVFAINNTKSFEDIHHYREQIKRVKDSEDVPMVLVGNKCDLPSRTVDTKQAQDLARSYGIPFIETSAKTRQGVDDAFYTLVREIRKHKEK
- Measurement description: KRas Binding Assay (TR-FRET displacement), KRas G12D
- Measurement parameters: TR-FRET tracer displacement
Heads up: the numbers are on a log10 scale; they represent IC50 in nM.

The examples below pair each entry with its known result.
{"Molecule": "C[C@H](Oc1nc(-c2cc(C3(C)CCCc4sc(N)c(C#N)c43)sn2)cc(N2CCCC3(CNS(=O)(=O)N3)C2)n1)[C@@H]1CCCN1C (stereo partly shown)", "Number": 0.48}
{"Molecule": "C[C@H](Oc1nc(-c2cc(C3(C)CCCc4sc(N)c(C#N)c43)sn2)cc(N2CCCn3nc(C(=O)N(C)C)cc3C2)n1)[C@@H]1CCCN1C (stereo partly shown)", "Number": 2.79}
{"Molecule": "C[C@H](Oc1nc(-c2cc(C3(C)CCCc4sc(N)c(C#N)c43)sn2)cc(N2CCC[C@@](C)(O)C2)n1)[C@@H]1CCCN1C (stereo partly shown)", "Number": 2.10}
{"Molecule": "C[C@H](Oc1nc(-c2noc(C3(C)CCCc4sc(N)c(C#N)c43)n2)cc(N2C[C@H]3CC[C@@H](C2)N3)n1)[C@@H]1CCCN1C (stereo partly shown)", "Number": 1.26}
{"Molecule": "C[C@H](Oc1nc(-c2cc(C3(C)CCCc4sc(N)c(C#N)c43)sn2)cc(N2C[C@H]3CC[C@@H](C2)N3)n1)[C@@H]1CCCN1C (stereo partly shown)", "Number": 1.56}

Which log10 IC50 is listed for C[C@H](Oc1nc(-c2noc(C3(C)CCCc4sc(N)c(C#N)c43)n2)cc(N2CCC[C@@](C)(O)C2)n1)[C@@H]1CCCN1C (stereo partly shown) ?
1.62

Which log10 IC50 is listed for C[C@H](Oc1nc(-c2cc(C3(C)CCCc4sc(N)c(C#N)c43)sn2)cc(N2C[C@@H]3C[C@H](C2)[C@H](O)C3)n1)[C@@H]1CCCN1C (stereo partly shown) ?
2.70

Which log10 IC50 is listed for C[C@H](Oc1nc(-c2noc(C3(C)CCCc4sc(N)c(C#N)c43)n2)cc(N2C[C@@H]3C[C@H](C2)[C@H](O)C3)n1)[C@@H]1CCCN1C (stereo partly shown) ?
2.62

Which log10 IC50 is listed for C[C@H](Oc1nc(-c2cc(C3(C)CCCc4sc(N)c(C#N)c43)sn2)cc(N2CCCC3(C2)NC(=O)NC3=O)n1)[C@@H]1CCCN1C (stereo partly shown) ?
1.97

Which log10 IC50 is listed for C[C@H](Oc1nc(-c2noc(C3(C)CCCc4sc(N)c(C#N)c43)n2)cc(N2CCCn3nc(C(=O)N(C)C)cc3C2)n1)[C@@H]1CCCN1C (stereo partly shown) ?
3.26
